This collection of values is drawn from ChEMBL document CHEMBL3988442.

Give measured Percent Effect for each item. Keep answers brief.
# Test system: Wolbachia pipientis
# EXPERIMENTAL_PROTOCOL: Anti-Wolbachia Cell-Based Screen
# Format: functional
# Set-up: scale not given: in the data most compounds retested in dose-response had high values
# STATED_CONDITIONS: 5 µM
Among all 48,000 compounds or so, about 13,000 (27%) showed an effect of 50% or more. The list shows a part of the results.
Number in %, nothing else.

Quick one: Percent Effect of CCNC(=O)[C@@H]1C[C@@H](N)CN1Cc1ccc2cccc(Cl)c2n1 ? -2.31

Quick one: Percent Effect of CS(=O)(=O)NC1CCN(C(=O)COCc2ccccc2)CC1 ? -3.192

Quick one: Percent Effect of O=C(C[C@@H]1COC[C@H]2CN(Cc3ccc(F)cc3)C[C@@H]12)N1CCOCC1.O=C(O)C(F)(F)F ? 19.83

Quick one: Percent Effect of N#Cc1nccnc1NC1CCN(c2ccccc2OC(F)F)C1 (stereo unspecified) ? 9.423

Quick one: Percent Effect of O=S(=O)(NC1CCC2(CC1)OCCO2)c1ccccc1Br ? -6.742

Quick one: Percent Effect of CCOCCOc1ccccc1C(=O)N1CCCC(c2ncc[nH]2)C1 (stereo unspecified) ? -24.68
